- experimental_target: Biotinylated SARS-CoV-2 S1 protein (ACRO, S1N-C82E8) (UniProt P0DTC2 16-685)
- test_summary: BLI
quantity_kind: Kd (pM)
# output: bare number, implied unit pM

The recorded Kd for entry Ab 15 scFv-Fc (scFv, V domains shown) VH: QVQLVQSGGGLVKPGRSLRLSCTASGFTFGDYAMSWFRQAPGKGLEWVGFIRSKAYGGTTGYAASVKGRFTISRDDSKSIAYLQMNSLKTEDTAVYYCTTADDDMDVWGKGTTVTVSS VL: NFMLTQPHSVSESPGKTVTISCTRSSGTIASNYVQWYQQRPGSAPTTVIYEDNQRPSGVPDRFSGSIDRSSNSASLTISGLTPDDEADYYCQSYDTSNHYVFGTGTKVTVL equals 33
